B1: BCL2L13 (parent)
chain: YIIQQGGWGTVFSLESEEEEYPGI

# Variants of: B1
# assay.procedure: protein stability index of a GFP-peptide fusion (GPS, HEK-293T) (PSI 1-6); higher = more stable;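 further: lentivirally expressed fusions sorted by FACS into six bins by GFP to DsRed ratio, PSI derived from sequencing read proportions per bin multiplied by bin number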
# assay.conditions: c terminus: a fixed tail appended
readout.name: protein stability index

Would you please look over these solved cases?
Return value of protein stability index for input Y21T , no commentary.
1.21

Return value of protein stability index for input I24H , no commentary.
1.63

Return value of protein stability index for input W8C , no commentary.
2.31

Return value of protein stability index for input T10F , no commentary.
2.42

Return value of protein stability index for input P22D , no commentary.
2.69

Return value of protein stability index for input Y1C , no commentary.
2.47

Now consider a different variant.
Return value of protein stability index for input G6P , no commentary.
2.12
